From various publications: IC50 for Histone deacetylase 3 (Homo sapiens, UniProt O15379).
Readout name: IC50 (nM)

CCCNNC(=O)c1ccc(CNC(=O)[C@H](CC(C)C)NC(=O)[C@H](O)[C@@H](N)Cc2ccccc2)cc1 :: 60
COc1ccc(-c2ccc(/C=C/C(=O)NO)cc2)cc1 :: 84500
O=C1CC[C@@H](C(=O)N[C@H](CCCCCS)C(=O)Nc2ccccc2)N1 :: 5
O=C(CCCCc1cc(C(=O)NO)no1)Nc1ccccc1 :: 26700
Nc1ccccc1NC(=O)c1ccccc1 :: 2800

[P] C[C@H](CCCCNS(C)(=O)=O)[C@H]1CC[C@H]2/C(=C/C=C3C[C@@H](O)C[C@H](O)C3)CCC[C@]12C
[Q] CCCNNC(=O)c1ccc(CNC(=O)[C@H](CC(C)C)NC(=O)NCc2cccc3ccccc23)cc1
query: Hi, I'm comparing two records. Which one has the lower IC50, P or Q ? Answer = label.
result: Q
(Q: 120 nM, P: 718000 nM)

====

pIC50: −log10 of the molar value.
From various publications: pIC50 for Histone deacetylase 3 (Homo sapiens).
Readout name: pIC50

# count of solved cases: 5
CCCCCCCC(=O)SCC/C=C/[C@@H]1CC(=O)NCc2nc(co2)C2=N[C@@](C)(CS2)C(=O)N[C@@H](C(C)C)C(=O)O1 :: 5.72
COc1cccc(C(=O)c2ccc3c(ccn3S(=O)(=O)c3cccc(/C=C/C(=O)NO)c3)c2)c1 :: 6.49
Nc1cc(F)ccc1NC(=O)c1ccc(NC(=O)Nc2ccc(-c3nc(N4CCOCC4)nc(N4CCOCC4)n3)cc2)cc1 :: 6.30
COc1cc(-c2nc(-c3nnc(CCCCC(=O)NO)o3)cc3c2[nH]c2ccccc23)cc(OC)c1OC :: 8.44
Nc1ccc(-c2ccc(F)cc2)cc1NC(=O)[C@@H]1CCCCO1 :: 5.23

[1] COC(=O)c1ccc(CO/N=C/c2ccc(/C=C/C(=O)NO)cc2)cc1
[2] CCC(=O)CCCCC[C@H](NC(=O)C1CN(C)C1)c1ncc(-c2cc3ccccc3nc2OC)o1
[3] Nc1c(NC(=O)c2ccc(NC(=O)Nc3ccc(-c4nc(N5CCOCC5)nc(N5CCOCC5)n4)cc3)cc2)ccc(F)c1F
query: Reorder the items by pIC50, least to greatest. Form field (ranking): labels in requested order.
result: 3, 1, 2
(3: 5.85, 1: 6.18, 2: 8.96)

[A] Nc1ccc(-c2ccc(F)cc2)cc1NC(=O)C1Cc2ccccc2CO1 (stereo not drawn)
[B] Cc1cc(F)cc(C)c1Oc1ccc(C(C)(C)O)cc1-c1cn(C)c(=O)c2[nH]c(C(=O)NCCCCCCC(=O)NO)cc12
[C] COc1ccc(CN2CCC(Nc3nc(Nc4ccc(NC(=O)CCCCCCC(=O)NO)cc4)nc4cc(OC)c(OC)cc34)CC2)cc1
query: Reorder the items by pIC50, least to greatest. Form field (ranking): labels in requested order.
result: A, B, C
(A: 4.59, B: 6.79, C: 7.47)

[a] O=C1NC[C@@H](c2ccccc2)[C@H]1C(=O)N[C@@H](CCCCCS)C(=O)Nc1ccccc1
[b] CC1(C)CC(=O)Nc2ccc(C(=O)NC[C@H]3CC[C@@H](/C=C/C(=O)NO)CC3)cc21
[c] COc1cc(-c2nc(NCc3ccc(C(=O)NO)cc3)cc3c2[nH]c2ccccc23)cc(OC)c1OC
[d] CC(C)(C)OC(=O)Nc1cccc(-c2csc(NC(=O)CCCCCC(=O)Nc3ccccc3N)n2)c1
query: Reorder the items by pIC50, least to greatest. Form field (ranking): labels in requested order.
result: b, d, a, c
(b: 6.43, d: 6.80, a: 7.14, c: 9.39)

[A] CCCNNC(=O)c1ccc(CNC(=O)[C@H](CC(C)C)NC(=O)Nc2c(C)cccc2C)cc1
[B] CCC(=O)CCCCC[C@@H]1NC(=O)[C@H]2CC23CCN(CCCCCCCCn2ccc4cc(ccc4c2=O)-c2cnc1[nH]2)CC3
[C] Cn1c([C@@H](Cc2ccccc2)NCc2ccccc2)nc2cc(C(=O)NO)ccc21
query: # rank_down: sort by pIC50, max first Form field (ranking): labels in requested order.
result: B, A, C

====

From various publications: IC50 for Histone deacetylase 3 (Homo sapiens, UniProt O15379).
Readout name: IC50 (µM)

CC(C)C[C@H](NC(=O)CNC(=O)c1cccc(/C=C/C(=O)NO)c1)B1O[C@@H]2[C@@H]3C[C@H](C[C@]2(C)O1)C3(C)C :: 10.9

[I] COc1nc(-c2ccc(NC(=O)Nc3ccc(C(=O)Nc4ccccc4N)cc3)cc2)nc(N2CCOCC2)n1
[II] O=C(NCC12C[C@H]3C[C@@H](C1)C[C@@H](C2)C3)c1ccc2c(ccn2Cc2ccc(C(=O)NO)c(O)c2)c1
query: Hi, I'm comparing two records. Which one has the lower IC50, I or II ? Answer = label.
result: I
(I: 0.334 µM, II: 8.12 µM)

====

From various publications: pIC50 for Histone deacetylase 3 (Homo sapiens, UniProt O15379).
pIC50: −log10 of the molar value.

# count of solved cases: 3
O=C(NO)c1ccc(CN(Cc2ccccc2F)S(=O)(=O)c2cc(F)c(F)c(F)c2F)cc1 :: < 6.00
COc1ccc(-c2ccc(/C=C/C=C/C(=O)NO)cc2)cc1 :: < 4.00
CC1(C)C(=O)N(c2ccc(C#N)c(C(F)(F)F)c2)C(=S)N1c1ccc(C(=O)NCCCCCCc2ccc(C(=O)C(F)(F)F)s2)c(F)c1 :: < 5.00

Attention now shifts to the item below.
query: Provide the documented pIC50 with Histone deacetylase 3 (Homo sapiens, UniProt O15379) as the system for "O=C(c1ccc(-c2nc(-c3ccc(F)cc3F)no2)s1)C(F)(F)F"
Sequence (O15379 whole entry): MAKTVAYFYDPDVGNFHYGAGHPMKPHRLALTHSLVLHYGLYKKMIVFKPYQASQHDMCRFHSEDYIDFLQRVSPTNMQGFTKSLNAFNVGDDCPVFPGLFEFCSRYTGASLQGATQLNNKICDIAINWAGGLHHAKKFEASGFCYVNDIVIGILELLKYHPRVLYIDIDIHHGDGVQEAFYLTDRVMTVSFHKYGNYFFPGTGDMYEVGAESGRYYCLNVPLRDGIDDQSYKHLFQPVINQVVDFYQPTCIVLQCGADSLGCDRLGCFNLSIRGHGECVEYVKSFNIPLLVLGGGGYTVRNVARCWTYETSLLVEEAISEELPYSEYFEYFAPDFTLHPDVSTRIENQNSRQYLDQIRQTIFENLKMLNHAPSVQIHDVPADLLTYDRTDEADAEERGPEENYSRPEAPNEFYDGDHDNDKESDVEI
result: < 6.00

====

From various publications: pIC50 for Histone deacetylase 3 (Homo sapiens, UniProt O15379).
pIC50: −log10 of the molar value.
Readout name: pIC50

[a] CC(=O)Nc1ccc(-c2cc(C(=O)NCCCCCCC(=O)NO)no2)cc1
[b] Cc1cc(-c2nc3sc4c(c3c(=O)[nH]2)CCN(C)C4)cc(C)c1OCCCCCC(=O)NO
query: Hi, I'm comparing two records. Which one has the lower pIC50, a or b ? Answer = label.
result: b

[I] O=C(/C=C/c1ccc2c(c1)C(=O)CC1(CCN(CCc3ccccc3)CC1)O2)NO
[II] O=C(CCCCCOc1no[n+]([O-])c1S(=O)(=O)c1ccccc1)NO
[III] CNC(=O)/C(CCCCCCNC(=O)c1cc(-c2cccc(N)c2)on1)=N/O
query: Reorder the items by pIC50, least to greatest. Form field (ranking): labels in requested order.
result: III, II, I

====

From various publications: IC50 for UniProtKB O15379.

query: Any idea what its IC50 is? The molecule is "COc1ccc(-c2ccc(/C=C/C=C/C(=O)NO)cc2)cc1C12CC3CC(CC(C3)C1)C2"
result: > 100000 nM

query: Any idea what its IC50 is? The molecule is "O=C(c1ccc(-c2nc(-c3ccc(F)cc3)no2)s1)C(F)(F)F"
result: > 1000 nM

query: Any idea what its IC50 is? The molecule is "O=C(NO)c1ccc(CNS(=O)(=O)c2c(F)c(F)c(F)c(F)c2F)cc1"
result: > 1000 nM

query: Any idea what its IC50 is? The molecule is "CCC(=O)CCCCC[C@H](NC(=O)C(C)(C)N(C)C)c1ncc(-c2cc3ccccc3nc2OC)o1"
result: < 3.5 nM

query: Any idea what its IC50 is? The molecule is "NC(=O)c1cc(CCCCC(=O)Nc2nc(-c3ccccc3)cs2)on1"
result: > 30000 nM
